# experimental.target: Bcl-2-related protein A1 (Homo sapiens) (UniProt Q16548)
# Sequence (Q16548 whole entry, looked up): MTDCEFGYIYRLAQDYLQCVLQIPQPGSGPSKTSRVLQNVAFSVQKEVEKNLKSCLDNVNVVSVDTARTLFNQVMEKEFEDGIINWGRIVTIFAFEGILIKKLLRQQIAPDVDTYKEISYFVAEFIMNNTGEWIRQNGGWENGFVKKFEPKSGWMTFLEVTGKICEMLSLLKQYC
# test.protocol: Bfl-1/Bim complex disruptors – biochemical, multiplexed, bead-based flow cytometry, primary screen (AID 1008);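 further: 0% = wells without compound plus tracer and 100% = blocker peptide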
# condition.summary: Bim-Bfl-1 binding inhibition, at 10 µM, stronger effect = higher value
The whole screen tested about 190,000 compounds, of which about 240 (0.13%) were called active. The sample holds actives, similar compounds and a random draw of the others, so the mix is not that of the screen.
Each record here notes measured inhibition.
I only need the number, in %, no unit after it.

CCOC(=O)C1(Cc2cccc(OC)c2)CCCN(S(=O)(=O)c2cccnc2)C1 (stereo not given): -2
Cc1ccc(N(C(=O)c2ccc(CN3CCOCC3)o2)C(C(=O)NCCC(C)C)c2cccs2)c(C)c1 (stereo not given): -7
CC(C(=O)NC1CCCC1)N(c1ccc(Oc2ccccc2)cc1)S(C)(=O)=O (stereo not given): -2
O=C(CCN1CCCCC1)N=Nc1c(O)[nH]c2ccccc12: 0

Let's switch to this molecule now.
Requested field: inhibition. Item: COc1ccc(CN2CCNC(=O)C2CC(=O)N(C)Cc2ccccn2)cc1OC (stereo not given) -2

* * *

# experimental.target: Bcl-2-related protein A1 (Homo sapiens) (UniProt Q16548)
# test.protocol: Bfl-1/Bim complex disruptors – biochemical, multiplexed, bead-based flow cytometry, primary screen (AID 1008);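 further: 0% = wells without compound plus tracer and 100% = blocker peptide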
# condition.summary: Bim-Bfl-1 binding inhibition, at 10 µM, stronger effect = higher value
Out of some 190,000 compounds screened, about 240 (0.13%) were called active. This is one part of a sample in which actives are shown more often than they occur.
reported.property: inhibition

Cc1cc(/C=N/NC(N)=O)c(C)n1C1CCCCC1: 16% (inactive)
Cc1[nH]c2ccccc2c1SCC(=O)Nc1nccs1: -5% (inactive)
O=C1N/C(=C/c2cccn2-c2ccccc2)C(=O)N1c1cccc(Cl)c1: -2% (inactive)

Name the recorded inhibition for C=CCc1ccccc1OCC(=O)N/N=C/c1ccccc1OCC . -1% (inactive)

Also COC(=O)COc1ccc(C2NC(=O)NC(C)=C2C(=O)NCc2ccccc2)cc1OC (stereo not drawn) ? -9% (inactive)

For COc1ccc(CC(=O)NCc2nnc(SCC(=O)Nc3ncc(C)s3)n2C)cc1 then? -5% (inactive)

Follow-up item: C=CS(=O)c1sc(Cl)c(N2CCOCC2)c1[N+](=O)[O-] (stereo not drawn) 57% (active)

Ok, now Cc1ccc(O)c(-c2cc(C(=O)Nc3c(C)n(C)n(-c4ccccc4)c3=O)[nH]n2)c1 -2% (inactive)

Same question for C=CCN(CC=C)C(=O)COC(=O)c1n[nH]c2ccccc12 please. -7% (inactive)

Do the same for N=c1c2c3c(sc2ncn1N)CCCC3 please -7% (inactive)

// same read-out, input: COc1cccc(-n2c(=S)sc3c(=O)n(-c4ccccc4OC)c(SCC4OCCO4)nc32)c1 -3% (inactive)

Repeat with Cc1ccc2c(c1)C1CN(C)CCC1N2C(=S)Nc1ccc(OC(F)F)cc1 (stereo not drawn) -7% (inactive)

Further, for Cn1cc(CN2CCC(C(O)CCc3ccccc3)CC2)c(-c2ccccc2F)n1 (stereo not drawn) ? -5% (inactive)

* * *

# experimental.target: Bcl-2-related protein A1 (Homo sapiens) (UniProt Q16548)
# test.protocol: Bfl-1/Bim complex disruptors – biochemical, multiplexed, bead-based flow cytometry, primary screen (AID 1008);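 further: 0% = wells without compound plus tracer and 100% = blocker peptide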
# condition.summary: Bim-Bfl-1 binding inhibition, at 10 µM
Out of some 190,000 compounds screened, about 240 (0.13%) were called active. No stated cut-off is given here; in the data, active means inhibition above about 40%. The full list was thinned out, with actives kept by preference.
Use one of these outcomes when replying: active, inactive

Cc1cccc(C)c1N1CCN(S(=O)(=O)N2CCCCC2)CC1: inactive
COc1ccc(N2C(=O)C(CC(=O)Nc3ccc(F)cc3)N(CCc3cccs3)C2=O)cc1 (stereo unspecified): inactive
COCCNC(=O)Nc1ccc2nc(-c3ccco3)c(-c3ccco3)nc2c1: active

Status in this test for O=C(CC1SC(=Nc2ccccc2)N(Cc2ccccn2)C1=O)Nc1cccc(Cl)c1 (stereo unspecified) ? inactive

What do you get for CC1(C)CC(=O)c2ccc(O)cc2O1 ? inactive

Same for CCn1c(CNC(=O)c2ccco2)nnc1SCC(=O)Nc1cccc(F)c1 inactive

Also check COc1ccc(NC(=O)Nc2ccc3nsnc3c2)cc1 inactive

And then Fc1ccc(COc2cccc(-c3n[nH]c(=S)o3)c2)cc1 , what is it? inactive

Try this compound too: O=C(NCc1ccccn1)c1ccc2nc(-c3ccco3)c(-c3ccco3)nc2c1 active

Also CN(c1ccc(C(=O)NCc2ccccn2)cc1)S(C)(=O)=O ? inactive

What do we get for COc1ccc(NC(=O)Nc2ccc3nc(C)c(C)nc3c2)cc1 ? inactive

* * *

Below is a list of entries, each paired with its recorded inhibition value.
# experimental.target: Bcl-2-related protein A1 (Homo sapiens) (UniProt Q16548)
# test.protocol: Bfl-1/Bim complex disruptors – biochemical, multiplexed, bead-based flow cytometry, primary screen (AID 1008);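 further: 0% = wells without compound plus tracer and 100% = blocker peptide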
# condition.summary: Bim-Bfl-1 binding inhibition, at 10 µM, stronger effect = higher value
Among all 190,000 compounds or so, about 240 (0.13%) were called active. The sample as a whole holds a higher share of actives than the screen did.
Report as a plain number; the unit % is understood.

CCOC(=O)c1ccccc1NC(=O)CSc1nc2ccccc2c(=O)[nH]1: -3
COc1cc(/C=N/NC(=S)Nc2cccnc2)cc(OC)c1O: 7

Turning now to a further compound:
Look up inhibition with Bcl-2-related protein A1 (Homo sapiens) (UniProt Q16548) for this compound: COc1ccc(CNc2c(CO)cnc3c2cnn3C)cc1 -3

* * *

# experimental.target: Bcl-2-related protein A1 (Homo sapiens) (UniProt Q16548)
# test.protocol: Bfl-1/Bim complex disruptors – biochemical, multiplexed, bead-based flow cytometry, primary screen (AID 1008);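 further: 0% = wells without compound plus tracer and 100% = blocker peptide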
# condition.summary: Bim-Bfl-1 binding inhibition, at 10 µM, stronger effect = higher value
Hit rate of the full screen: of about 190,000 compounds, about 240 (0.13%) were called active. The entries come from a sample that favours actives as a whole.
reported.property: inhibition (%)
Kindly provide the numeric value in % only, without the unit symbol.

C/C(=N\NC(=O)COc1c(C)cccc1C)c1cccs1: -7
OC1CCCN(c2ncnc3c2nnn3Cc2c(F)cccc2Cl)C1 (stereo unspecified): 4
Cc1ccnc(NC(=O)c2ccco2)n1: -3

What does the record list as inhibition for CC(OC(=O)c1ccccc1OCc1ccc(Cl)cc1)C(N)=O (stereo unspecified) ? -4

And what about the compound COc1cc(NC(=S)NCCSc2ccc(C)cc2)cc(OC)c1 ? -1

Param item: CC1CCN(C2=NC(=O)/C(=C/c3cn[nH]c3-c3ccccc3)S2)CC1 -13

* * *

Entries and their inhibition
# experimental.target: Bcl-2-related protein A1 (Homo sapiens)
# test.protocol: Bfl-1/Bim complex disruptors – biochemical, multiplexed, bead-based flow cytometry, primary screen (AID 1008);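 further: 0% = wells without compound plus tracer and 100% = blocker peptide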
# condition.summary: Bim-Bfl-1 binding inhibition, at 10 µM, stronger effect = higher value
The whole screen tested about 190,000 compounds, of which about 240 (0.13%) were called active. What follows is part of a selection rich in actives, with near analogues and random picks from the rest.
Write the number in % without appending the unit.

Use these answered entries as a reference point.
CCOc1ccc(C(CC(=O)O)n2cnnn2)cc1OC (configuration not stated): -4
COC(c1ccccc1)c1nnc(CCC(=O)N2CCN(CCOc3ccccc3)CC2)o1 (configuration not stated): -5
CCCOC(=O)c1c(NC(=O)c2cnn3c2NC(c2ccccc2)CC3C(F)(F)F)sc2c1CCCC2 (configuration not stated): -18
COc1ccc(N(C)S(=O)(=O)c2cccc3nsnc23)cc1: -6
CC1(C)C2CCC1(C)C(OC(=O)c1ccc(O)cc1)C2 (configuration not stated): 2
O=C(C1CCCO1)N1CCN(C(=S)NC2CC2)CC1 (configuration not stated): -4
CCc1ccc(C2C(C#N)=C(N)N(N(C)C)C3=C2C(=O)CCC3)s1 (configuration not stated): 0
CCC(=O)c1ccc(OCC(O)Cn2nc(C)c(C(C)=O)c2C)cc1 (configuration not stated): 0

# next compound below
Requested read-out: inhibition. Entry: CO/N=C/CC(=O)c1ccc(OC)cc1 -2

* * *

Listed here: items and their measured inhibition.
# experimental.target: Bcl-2-related protein A1 (Homo sapiens) (UniProt Q16548)
# test.protocol: Bfl-1/Bim complex disruptors – biochemical, multiplexed, bead-based flow cytometry, primary screen (AID 1008);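 further: 0% = wells without compound plus tracer and 100% = blocker peptide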
# condition.summary: Bim-Bfl-1 binding inhibition, at 10 µM, stronger effect = higher value
Hit rate of the full screen: of about 190,000 compounds, about 240 (0.13%) were called active. For the sample, actives were picked, then their nearest neighbours and some compounds at random.
Use % as the unit, but write only the number.

CN(C(=O)c1c(Cl)cnn1C)C12CC3CC(CC(C3)C1)C2: 21
CC1(c2ccccc2)CC(C)(C)N(C(=O)c2cc([N+](=O)[O-])cc([N+](=O)[O-])c2)c2ccccc21 (configuration not stated): -1
COc1ccc(C(=O)CSc2nnnn2C)c(OC)c1: -5
CC(C)C(C)(C#N)NC(=O)CSc1nc2scc(-c3ccccc3)c2c(=O)[nH]1 (configuration not stated): 3
CCN(CC)S(=O)(=O)c1ccc(Cl)c(C(=O)NC(C)C(c2cccs2)N2CCCC2)c1 (configuration not stated): -5

# query: inhibition of entry CCOC(=O)N1CCC(NC(=O)C(NS(=O)(=O)c2ccc3c(c2)CCN3C(=O)CC)C(C)C)CC1 (configuration not stated) -4

Would you kindly repeat that for CCc1nnc(NS(=O)(=O)c2ccc(NC(=S)NC(=O)/C=C/c3cccs3)cc2)s1 ? 1

Also need CNC(=S)N1CCC(NC(=O)C(Cc2ccc(F)cc2)NC(C)=O)CC1 (configuration not stated) , thanks. -2

Try the compound CCc1ccc(NC2Nc3cc(C)nn3S2)cc1 (configuration not stated) -1

Same question, O=C(CCN1C(=O)c2ccccc2C1=O)C1=NN[C@@H]2C(=O)N(c3ccc(F)cc3)C(=O)[C@H]12 this time -9

Then this compound: Cc1cc(NC(=O)CSc2nnc(Nc3ccccc3F)s2)no1 -8

Then COc1cc(OC)cc(-c2nnc(N(C)C(=O)c3ccncc3)s2)c1 ? -10

// same read-out, input: CN(C(=O)CSc1nnc(Nc2ccccc2)s1)C1CCS(=O)(=O)C1 (configuration not stated) -5

Could you do the same for C=CCNc1nc(Nc2ccc(Cl)cc2)nc(OC)n1 , please? -6

C=CCOCCN(C)C1=NS(=O)(=O)c2ccccc21 , same question. -4

Try this compound next: CCOC(=O)c1cc2c(nc1NC(=S)Nc1ccccc1)CC(C)(CC)OC2 (configuration not stated) -11

Thanks! And O=C(O)c1cccc(N2C(=O)Nc3ccccc3N2O)c1 ? 0

Try Cn1c(=O)c([N+](=O)[O-])c(Oc2ccccc2)c2ccccc21 next. 0

# iterate: CCc1ccc(NC(=O)C(=O)N/N=C(\C)CC(=O)NCCOC)cc1 -3

Same for COc1cc(OC)c(C(=O)OCC(=O)N2CC(=O)Nc3ccccc32)cc1OC -1

# iterate: Cc1cc(OC(=O)c2ccccc2)c([N+](=O)[O-])c(=O)[nH]1 -5

Now the same for COc1cc2sc(C)nc2cc1C 2
